# TEST TARGET: MASP-2 CCP2-SP (Homo sapiens (Human), UniProt O00187)
# Sequence (O00187 445-686): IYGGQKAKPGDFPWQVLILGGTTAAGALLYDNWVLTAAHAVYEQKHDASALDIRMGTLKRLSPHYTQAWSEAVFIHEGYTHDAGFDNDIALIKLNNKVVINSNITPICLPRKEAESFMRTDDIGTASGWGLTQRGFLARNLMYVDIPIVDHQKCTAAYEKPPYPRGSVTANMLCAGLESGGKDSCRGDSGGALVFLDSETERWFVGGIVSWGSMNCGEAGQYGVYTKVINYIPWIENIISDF
# Sequence (O00187 364-432 partner): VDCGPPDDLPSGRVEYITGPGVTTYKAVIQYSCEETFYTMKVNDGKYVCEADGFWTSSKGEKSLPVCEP
# MEASUREMENT NOTES: MASP-2 co-crystallization, X-ray crystallography and structure analysis (H-bonds, van der Waals contacts)
# CONDITION CONTEXT: Table A8-6; 9th residue column; nearest protein atom in cell to the left
Quick list: Pharmacophore protein distance to MET_658 (second MET_658 column) per entry.
Lab note: jot down the number only; don't add units.

C[C@H](NC(=O)[C@H]1C[C@H](c2ccccc2)CN1)C(=O)NCc1ccc2c(N)nccc2c1: 2.71
C[C@H](NC(=O)[C@H](N)CCc1ccccc1)C(=O)NCc1ccc(N)nc1.Cl.Cl [1007_1]: 3.25
C[C@H](NC(=O)[C@H](N)C1Cc2ccccc2C1)C(=O)NCc1ccc2c(N)nccc2c1.Cl.Cl [1088_B]: 3.12

Indicate its recorded Pharmacophore protein distance to MET_658 (second MET_658 column); the compound in question is C[C@H](NC(=O)[C@H]1Cc2c([nH]c3ccccc23)CN1)C(=O)NCc1ccc(C(=N)N)cc1.Cl.Cl [1097_2]
3.13

Report measured Pharmacophore protein distance to MET_658 (second MET_658 column); entry is `C[C@H](NC(=O)[C@@H](CCc1ccccc1)NCc1ccc(N2CCOCC2)cc1)C(=O)NCc1ccc(C(=N)N)cc1`
3.25

* * *

Pharmacophore torsion angle a(H4, O1, O2, N2) for assorted compounds
# TEST TARGET: MASP-2 CCP2-SP (Homo sapiens (Human))
# MEASUREMENT NOTES: MASP-2 co-crystallization, X-ray crystallography and structure analysis (H-bonds, van der Waals contacts)
# CONDITION CONTEXT: Table A7-1; between pharmacophore elements of the bound compound
API note: the answer field is a bare number with no unit suffix.

Study these solved cases before continuing.
C[C@H](NC(=O)[C@H]1C[C@@H](c2ccccc2)CCN1)C(=O)NCc1cnc2[nH]cc(Cl)c2c1 [compound 1433]: −171.69
C[C@H](NC(=O)[C@H]1C[C@@H](c2ccccc2)CCN1)C(=O)NCc1cc(Cl)ccc1O.Cl [1078_11]: −112.40
C[C@H](NC(=O)[C@@H](CCc1ccccc1)NCCCc1ccc(O)cc1)C(=O)NCc1ccc(C(=N)N)cc1.Cl.Cl [1145_B]: 124.15
C[C@H](NC(=O)[C@H]1C[C@@H](c2ccccc2)CCN1)C(=O)NCc1cc(Cl)ccc1O.Cl [1078_13]: −162.99
C[C@H](NC(=O)[C@H]1C[C@@H](c2ccccc2)CCN1)C(=O)NCc1cc(Cl)ccc1O.Cl [1078_1]: −112.97
C[C@H](NC(=O)[C@H]1C[C@@H](c2ccccc2)CCN1)C(=O)NCc1cc(Cl)ccc1O.Cl [1078_12]: −108.09

Proceeding to the next compound to report its Pharmacophore torsion angle a(H4, O1, O2, N2).
Determine from records and report Pharmacophore torsion angle a(H4, O1, O2, N2) for C[C@H](NC(=O)[C@H](N)CCc1ccccc1)C(=O)NCc1ccc(N)nc1.Cl.Cl [1007_2]
126.25

* * *

Property: a(O2, N2, O3); scope: individual compounds
# TEST TARGET: MASP-2 CCP2-SP (Homo sapiens (Human))
# MEASUREMENT NOTES: MASP-2 co-crystallization, X-ray crystallography and structure analysis (H-bonds, van der Waals contacts)
# CONDITION CONTEXT: Table A6-2 pharmacophore angle
# Excerpt: This example illustrates the preparation of recombinant MASP-2 protein, based on UniProt O00187, human mannan-binding lectin serine protease 2. Expression constructs for human MASP-2 CCP2-SP and CCP2-SP-6HIS were generated for recombinant expression in E. coli cells. […]
No unit in the answer, please; the number alone is enough.

C[C@H](NC(=O)[C@@H](CCc1ccccc1)NCc1ccc(C(=O)N2CCOCC2)cc1)C(=O)NCc1ccc(C(=N)N)cc1.Cl.Cl: 165.3

Output measured a(O2, N2, O3) for this item: `C[C@H](NC(=O)[C@@H](CCc1ccccc1)NCCCc1ccc(O)cc1)C(=O)NCc1ccc(C(=N)N)cc1.Cl.Cl`
168.41

Consider the compound CC(=O)Nc1ccc(CCNC(CCc2ccccc2)C(=O)NC(C)C(=O)NCc2ccc(C(=N)N)cc2)cc1.Cl.Cl (stereo not drawn) [1345_1] and give its recorded a(O2, N2, O3).
163.54

Answer with the recorded a(O2, N2, O3) for the compound listed here: CC(=O)Nc1ccc(CCNC(CCc2ccccc2)C(=O)NC(C)C(=O)NCc2ccc(C(=N)N)cc2)cc1.Cl.Cl (stereo not drawn) [1345_2]
162.76

Query a(O2, N2, O3) for CC(NC(=O)C(CCc1ccccc1)NCc1ccc(C(=O)N2CCOCC2)cc1)C(=O)NCc1ccc(C(=N)N)cc1.Cl.Cl (stereo not drawn)
167.7

Consider the compound CC(NC(=O)C(CCc1ccccc1)NCCCc1ccc(O)cc1)C(=O)NCc1ccc(C(=N)N)cc1.Cl.Cl (stereo not drawn) and give its recorded a(O2, N2, O3).
168.41

* * *

# TEST TARGET: MASP-2 CCP2-SP (Homo sapiens (Human))
# MEASUREMENT NOTES: MASP-2 co-crystallization, X-ray crystallography and structure analysis (H-bonds, van der Waals contacts)
# CONDITION CONTEXT: Table A1 (H-Bonds); ASP 627 OD1
Counter-ions that a name gives are not always drawn.
REPORTED PROPERTY: H-bond distance to MASP-2 ASP 627 atom OD1

Known results for compounds:
C[C@H](NC(=O)[C@H](N)CCc1ccccc1)C(=O)NCc1ccc(C(=N)N)cc1: 2.74
N=C(N)c1ccc(CNC(=O)[C@@H]2CCN2C(=O)[C@H](NCC(=O)O)C2Cc3ccccc3C2)cc1: 2.79

Proceeding to the next compound to report its H-bond distance to MASP-2 ASP 627 atom OD1.
Using the record for C[C@H](NC(=O)[C@H](N)C1Cc2ccccc2C1)C(=O)NCc1ccc2c(N)nccc2c1 [compound 1088, Dihydrochloride] , state its measured H-bond distance to MASP-2 ASP 627 atom OD1.
2.91

* * *

# TEST TARGET: MASP-2 CCP2-SP (Homo sapiens (Human))
# MEASUREMENT NOTES: MASP-2 co-crystallization, X-ray crystallography and structure analysis (H-bonds, van der Waals contacts)
# CONDITION CONTEXT: Table A4-2; element N2
# Ligand-pharmacophore element distance, pharmacophore element N2 listing for each entry below
Number only, please.

C[C@H](NC(=O)[C@H](N)CCc1ccccc1)C(=O)NCc1ccc(C(=N)N)cc1: 0.59
C[C@H](NC(=O)[C@H](N)CCCc1ccccc1)C(=O)NCc1ccc(C(=N)N)cc1.Cl.Cl [1042_2]: 1.72
O=c1oc(-c2ccccc2[N+](=O)[O-])nc2ccccc12: 0
C[C@H](NC(=O)[C@H](N)CCCc1ccccc1)C(=O)NCc1ccc(C(=N)N)cc1.Cl.Cl [1042_1]: 0.56
N=C(N)c1ccc(CNC(=O)[C@@H]2CCN2C(=O)[C@H](NCC(=O)O)C2Cc3ccccc3C2)cc1: 1.8

Complete the entry with Ligand-pharmacophore element distance, pharmacophore element N2 for `N=C(N)c1ccc(CNC(=O)[C@@H]2CCN2C(=O)[C@H]2Cc3ccccc3CN2)cc1`
0.86

* * *

# TEST TARGET: MASP-2 CCP2-SP (Homo sapiens (Human), UniProt O00187)
# MEASUREMENT NOTES: MASP-2 co-crystallization, X-ray crystallography and structure analysis (H-bonds, van der Waals contacts)
# CONDITION CONTEXT: Table A7-1; between pharmacophore elements of the bound compound
Rule: condition met for Pharmacophore torsion angle a(C5, CA1, O1, H4) not less than 10, condition not met for anything less.

Here are 8 compounds together with their reported answers.
C[C@H](NC(=O)[C@H]1C[C@@H](c2ccccc2)CCN1)C(=O)NCc1cc(Cl)ccc1O.Cl [1078_15]: condition met
C[C@H](NC(=O)[C@H]1C[C@@H](c2ccccc2)CCN1)C(=O)NCc1cc(Cl)ccc1O.Cl [1078_8]: condition not met
C[C@H](NC(=O)[C@H]1C[C@@H](c2ccccc2)CCN1)C(=O)NCc1cnc2[nH]cc(Cl)c2c1: condition not met
C[C@H](NC(=O)[C@H]1C[C@@H](c2ccccc2)CCN1)C(=O)NCc1cc(Cl)ccc1O.Cl [1078_12]: condition met
C[C@H](NC(=O)[C@H]1C[C@@H](c2ccccc2)CCN1)C(=O)NCc1cc(Cl)ccc1O.Cl [1078_10]: condition not met
C[C@H](NC(=O)[C@H]1C[C@@H](c2ccccc2)CCN1)C(=O)NCc1cc(Cl)ccc1O.Cl [1078_14]: condition met
C[C@H](NC(=O)[C@H]1C[C@@H](c2ccccc2)CCN1)C(=O)NCc1cc(Cl)ccc1O.Cl [1078_16]: condition met
C[C@H](NC(=O)[C@H]1C[C@@H](c2ccccc2)CCN1)C(=O)NCc1cc(Cl)ccc1O.Cl [1078_6]: condition not met

Textbook exercise: given the entry C[C@H](NC(=O)[C@H]1C[C@@H](c2ccccc2)CCN1)C(=O)NCc1cc(Cl)ccc1O.Cl [1078_13] , state whether its Pharmacophore torsion angle a(C5, CA1, O1, H4) is greater than or equal to 10.
condition not met

Threshold query (Pharmacophore torsion angle a(C5, CA1, O1, H4) >= 10) on C[C@H](NC(=O)[C@H]1C[C@@H](c2ccccc2)CCN1)C(=O)NCc1cc(Cl)ccc1O.Cl [1078_4]
condition met

Could you please find out whether C[C@H](NC(=O)[C@H]1C[C@@H](c2ccccc2)CCN1)C(=O)NCc1cc(Cl)ccc1O.Cl [1078_3] has Pharmacophore torsion angle a(C5, CA1, O1, H4) that meets 10 or exceeds it?
condition not met

Could you verify whether the entry C[C@H](NC(=O)[C@H]1C[C@@H](c2ccccc2)CCN1)C(=O)NCc1cc(Cl)ccc1O.Cl [1078_5] shows Pharmacophore torsion angle a(C5, CA1, O1, H4) of no less than 10?
condition met

Would you say `C[C@H](NC(=O)[C@H]1C[C@H](Cc2ccccc2)CN1)C(=O)NCc1cnc2[nH]cc(Cl)c2c1` shows Pharmacophore torsion angle a(C5, CA1, O1, H4) at minimum 10?
condition not met

Every entry's value here was drawn from patent US12195427B2.
